B1: glmS ribozyme (parent)
chain: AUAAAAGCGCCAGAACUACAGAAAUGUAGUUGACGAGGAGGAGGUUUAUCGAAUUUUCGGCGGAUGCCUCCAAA

- Variants of: B1
- protocol notes: self-cleavage kobs at 10000 uM GlcN6P; higher = faster cleavage; RNA array
- test conditions: with glucosamine-6-phosphate
This sample holds only a part of the variants without activity.
Each entry below carries its reported self-cleavage kobs at 10000 uM GlcN6P.

Solved cases (8 shown):
U30A G60U C71U	< 1e-05 s⁻¹
C8A C11G	< 1e-05 s⁻¹
G43U C58U	< 1e-05 s⁻¹
G13A G62A	< 1e-05 s⁻¹
C34A G51C	< 1e-05 s⁻¹
U56G G60C	< 1e-05 s⁻¹
C8G G9C U55A	< 1e-05 s⁻¹
G35A C70U	< 1e-05 s⁻¹

Now consider the entry below.
Input: Any idea what self-cleavage kobs at 10000 uM GlcN6P was measured for C11U A15C G62C ?
Output: < 1e-05 s⁻¹

Cited source for all entries: the supplement of paper PMC7125110
